Attribution: the supplement of paper PMC7695840

# Test system: Staphylococcus aureus MW2 (mecA+)
# Assay Notes: IC50 (growth, competition assay)
# Condition: fluorescent label: DsRed; cefoxitin: subinhibitory
Property Name: pIC50
Scale for pIC50: -log10 of concentration given in mol/L; no unit attached.

Here are 5 compounds together with their reported answers.
                                   compound  reported_value
0  CC(C)c1cccc(C(C)C)c1N1C(=O)c2ccc(O)cc2C1=O [5HPP-33]            4.59
1  CN(Cc1cnc2nc(N)nc(N)c2n1)c1ccc(C(=O)N[C@@H](CCC(=O)O)C(=O)O)cc1 [Abitrexate (Methotrexate)]            3.94
2  COc1cc(Nc2ncc3c(n2)-c2ccc(Cl)cc2C(c2c(F)cccc2OC)=NC3)ccc1C(=O)O [MLN8237 (Alisertib)]            4.91
3  CCN(CC)C(=S)SSC(=S)N(CC)CC [Tetraethylthiuram disulfide]            4.48
4  CN1CCN(CCCN2c3ccccc3Sc3ccc(Cl)cc32)CC1 [COMPAZINE]            3.86

[in] Quickly give me recorded pIC50 for CCCCCC(=O)Cc1cc(O)cc(O)c1C(=O)Oc1cc(CC(=O)CCCCC)c(C(=O)O)c(OC)c1 [ARTHONIOIC ACID]
[out] 4.62

* * *

Entries and their measured IC50 follow.
# Tested on: Staphylococcus aureus MW2 delta-mecA (mecA-)
# Assay Notes: IC50 (growth, competition assay)
# Condition: fluorescent label: DsRed; cefoxitin: subinhibitory

Compound	IC50
C[C@H]1O[C@@H](n2cc(F)c(=O)[nH]c2=O)[C@H](O)[C@@H]1O [Doxifluridine]	0.661 µM
O=C1C(Cl)=C(Cl)C(=O)C(Cl)=C1Cl	16 µM
CC(C)N(CCC(=O)c1ccc2ccccc2c1)Cc1ccccc1	< 9.85 µM
Cc1cc(C(C)(C)CC(C)(C)C)ccc1OCCOCC[N+](C)(C)Cc1ccccc1	< 9.85 µM
Cn1nnnc1SCC1=C(C(=O)O)N2C(=O)[C@@H](NC(=O)[C@H](O)c3ccccc3)[C@H]2SC1 [CEFAMANDOLE SODIUM]	< 9.85 µM
O=C(c1ccc(Nc2nccc(-c3cc4ccccc4s3)n2)cc1)N1CCC(N2CCCC2)CC1	18.3 µM
CO/N=C(\C(=O)N[C@@H]1C(=O)N2C(C(=O)O)=C(CSc3nnnn3C)CS[C@H]12)c1csc(N)n1	< 9.85 µM
CCn1cnc2c(Nc3cccc(Cl)c3)nc(N[C@@H]3CCCC[C@@H]3N)nc21	15.2 µM
CCCCCCCCCCCCCCCC(=O)OC(CC(=O)O)C[N+](C)(C)C (racemic) [Palmitoyl-DL-Carnitine chloride]	< 9.85 µM
CCC(=O)Nc1cccc(Oc2nc(Nc3ccc(N4CCN(C)CC4)cc3OC)ncc2Cl)c1	> 150 µM

[in] Recall the reported IC50 of `O=C1NC(=O)[C@@]2(CCOc3ccc(F)cc32)N1` when tested on Staphylococcus aureus MW2 delta-mecA (mecA-).
[out] < 9.85 µM

[in] Recall the reported IC50 of `O=C(O)c1ccc2cc(-c3ccc(O)c(C45CC6CC(CC(C6)C4)C5)c3)ccc2c1` when tested on Staphylococcus aureus MW2 delta-mecA (mecA-).
[out] < 9.85 µM

[in] Recall the reported IC50 of CC(=O)O[C@H]1C[C@@]2(C)[C@@H](C[C@@H](O)[C@H]3[C@@]4(C)CC[C@@H](O)[C@@H](C)[C@@H]4CC[C@@]32C)/C1=C(\CCC=C(C)C)C(=O)O [FUCIDINE] when tested on Staphylococcus aureus MW2 delta-mecA (mecA-).
[out] < 9.85 µM

[in] Recall the reported IC50 of CC(=O)NC[C@H]1CN(c2ccc(N3CCOCC3)c(F)c2)C(=O)O1 [Linezolid (Zyvox)] when tested on Staphylococcus aureus MW2 delta-mecA (mecA-).
[out] 0.992 µM
